Data provenance: ChEMBL document CHEMBL3885861

Would you mind telling me the reported APTT of each entry?
# Species on record: Rattus norvegicus
# protocolDetails: Open TG-GATES - Regimen: Single
# Assay type: toxicity, organism-based, Sprague-Dawley
# Set-up: regimen Single, gender Male, age 6 weeks
# measurementContext: in vivo, po, 1000 mg/kg, 6 h, tissue Blood, route gavage, dose level High
One number for each entry, in s.

Known results for compounds:
compound	unitDescriptor	APTT
CN/C(=N/CCSCc1nc[nH]c1C)NC#N [CIMETIDINE]	s	19
CNC(=C[N+](=O)[O-])NCCSCc1ccc(CN(C)C)o1 [RANITIDINE]	s	18.8
COC(=O)C1=C(C)NC(C)=C(C(=O)OC)C1c1ccccc1[N+](=O)[O-] [NIFEDIPINE]	s	16.5

List the reported APTT of each compound below.
1. O=C(OC[C@H]1O[C@@H](OC(=O)c2cc(O)c(O)c(OC(=O)c3cc(O)c(O)c(O)c3)c2)[C@H](OC(=O)c2cc(O)c(O)c(OC(=O)c3cc(O)c(O)c(O)c3)c2)[C@@H](OC(=O)c2cc(O)c(O)c(OC(=O)c3cc(O)c(O)c(O)c3)c2)[C@@H]1OC(=O)c1cc(O)c(O)c(OC(=O)c2cc(O)c(O)c(O)c2)c1)c1cc(O)c(O)c(OC(=O)c2cc(O)c(O)c(O)c2)c1 [TANNIC ACID]
2. Cc1nnc2n1-c1ccc(Cl)cc1C(c1ccccc1Cl)=NC2 [TRIAZOLAM]

Result ::
1: 16.7; 2: 18.3
